Data credit: ChEMBL document CHEMBL4382200

System: UGT
Protocol text: Drug metabolism in rat liver microsome S9 fraction assessed as UGT-mediated metabolism by measuring compound remaining at 5 uM pretreated with UDPGA and measured after 15 mins by UPLC-MS/MS analysis
Format: ADME, microsomes
Test context: liver microsome S9 fraction, read-out: Stability
Measured endpoint: remaining at 0.25 h, 5 µM (%)

- Smiles structure: "Nc1ncnc2c1c(-c1ccc(Cl)cc1)cn2[C@@H]1O[C@H](CO)[C@@H](O)[C@H]1O"
  Measured endpoint: "remaining at 0.25 h, 5 µM"
  Meas value: 100
- Smiles structure: "Nc1ncnc2c1c(-c1ccc(Cl)cc1)cn2[C@@H]1O[C@H](CO)C[C@H]1O"
  Measured endpoint: "remaining at 0.25 h, 5 µM"
  Meas value: 101

* * *

System: CYP450
Protocol text: Drug metabolism in dog liver microsome S9 fraction assessed as CYP450-mediated metabolism by measuring compound remaining at 5 uM pretreated with NADPH and measured after 30 mins by UPLC-MS/MS analysis
Assay type: ADME, microsomes, Canis lupus familiaris
Test context: liver microsome S9 fraction, read-out: Stability
We begin with a simple list: items and their reported remaining at 0.5 h, 5 µM.
Measured endpoint: remaining at 0.5 h, 5 µM (%)

- Smiles structure: "Nc1ncnc2c1c(-c1ccc(Cl)cc1)cn2[C@@H]1O[C@H](CO)C[C@H]1O"
  Endpoint unit: "%"
  Meas value: 96
- Smiles structure: "Nc1ncnc2c1c(-c1ccc(Cl)cc1)cn2[C@@H]1O[C@H](CO)[C@@H](O)[C@H]1O"
  Endpoint unit: "%"
  Meas value: 96

* * *

System: UGT
Protocol text: Drug metabolism in rat liver microsome S9 fraction assessed as UGT-mediated metabolism by measuring compound remaining at 5 uM pretreated with UDPGA and measured after 60 mins by UPLC-MS/MS analysis
Format: ADME, microsomes
Test context: liver microsome S9 fraction, read-out: Stability
Listed here are compounds together with their documented remaining at 1 h, 5 µM.

- Smiles structure: "Nc1ncnc2c1c(-c1ccc(Cl)cc1)cn2[C@@H]1O[C@H](CO)[C@@H](O)[C@H]1O"
  remaining at 1 h, 5 µM [%]: 93
- Smiles structure: "Nc1ncnc2c1c(-c1ccc(Cl)cc1)cn2[C@@H]1O[C@H](CO)C[C@H]1O"
  remaining at 1 h, 5 µM [%]: 96

* * *

Tested on: UGT
Protocol text: Drug metabolism in mouse liver microsome S9 fraction assessed as UGT-mediated metabolism by measuring compound remaining at 5 uM pretreated with UDPGA and measured after 60 mins by UPLC-MS/MS analysis
Assay type: ADME, microsomes
Test context: liver microsome S9 fraction, read-out: Stability

- Smiles structure: "Nc1ncnc2c1c(-c1ccc(Cl)cc1)cn2[C@@H]1O[C@H](CO)[C@@H](O)[C@H]1O"
  Endpoint unit: "%"
  remaining at 1 h, 5 µM: 106
- Smiles structure: "Nc1ncnc2c1c(-c1ccc(Cl)cc1)cn2[C@@H]1O[C@H](CO)C[C@H]1O"
  Endpoint unit: "%"
  remaining at 1 h, 5 µM: 89

* * *

Test system: CYP450
Protocol text: Drug metabolism in rat liver microsome S9 fraction assessed as CYP450-mediated metabolism by measuring compound remaining at 5 uM pretreated with NADPH and measured after 15 mins by UPLC-MS/MS analysis
Assay type: ADME, microsomes
Test context: liver microsome S9 fraction, read-out: Stability
Measured endpoint: remaining at 0.25 h, 5 µM (%)

- Smiles structure: "Nc1ncnc2c1c(-c1ccc(Cl)cc1)cn2[C@@H]1O[C@H](CO)C[C@H]1O"
  Measured target: "CYP450"
  Meas value: 101
